Origin of the recorded values: ChEMBL document CHEMBL1146669

For reference, IC50 measured on Receptor-type tyrosine-protein phosphatase C (Homo sapiens, UniProt P08575):

Below: 5 compounds and their reported IC50.
# compound, IC50
measured = [
    ("O=C(OCc1ccccc1)C(Cc1ccc(C(F)(F)P(=O)(O)O)cc1)(Cc1ccc(C(F)(F)P(=O)(O)O)cc1)C(=O)OCc1ccccc1", "19 µM"),
    ("O=C(c1ccccc1)C(Cc1ccc(C(F)(F)P(=O)(O)O)cc1)(Cc1ccc(C(F)(F)P(=O)(O)O)cc1)c1ccccc1", "> 50 µM"),
    ("O=C(OCc1ccccc1)C(Cc1ccc(C(F)(F)C(=O)O)cc1)(Cc1ccc(C(F)(F)P(=O)(O)O)cc1)C(=O)OCc1ccccc1", "> 50 µM"),
    ("O=C(c1ccccc1)C(C/C=C/c1ccccc1)(Cc1ccc(C(F)(F)P(=O)(O)O)cc1)c1ccccc1 (configuration not stated)", "5.5 µM"),
    ("O=C(c1ccccc1)C(Cc1ccc(C(F)(F)P(=O)(O)O)cc1)c1ccccc1 (configuration not stated)", "> 50 µM"),
]

## Input Retrieve IC50 on Receptor-type tyrosine-protein phosphatase C (Homo sapiens, UniProt P08575); query O=C(c1ccccc1)C(Cc1ccc(C(F)(F)P(=O)(O)O)c(Cl)c1)c1ccccc1 (configuration not stated)
Sequence (P08575 whole entry): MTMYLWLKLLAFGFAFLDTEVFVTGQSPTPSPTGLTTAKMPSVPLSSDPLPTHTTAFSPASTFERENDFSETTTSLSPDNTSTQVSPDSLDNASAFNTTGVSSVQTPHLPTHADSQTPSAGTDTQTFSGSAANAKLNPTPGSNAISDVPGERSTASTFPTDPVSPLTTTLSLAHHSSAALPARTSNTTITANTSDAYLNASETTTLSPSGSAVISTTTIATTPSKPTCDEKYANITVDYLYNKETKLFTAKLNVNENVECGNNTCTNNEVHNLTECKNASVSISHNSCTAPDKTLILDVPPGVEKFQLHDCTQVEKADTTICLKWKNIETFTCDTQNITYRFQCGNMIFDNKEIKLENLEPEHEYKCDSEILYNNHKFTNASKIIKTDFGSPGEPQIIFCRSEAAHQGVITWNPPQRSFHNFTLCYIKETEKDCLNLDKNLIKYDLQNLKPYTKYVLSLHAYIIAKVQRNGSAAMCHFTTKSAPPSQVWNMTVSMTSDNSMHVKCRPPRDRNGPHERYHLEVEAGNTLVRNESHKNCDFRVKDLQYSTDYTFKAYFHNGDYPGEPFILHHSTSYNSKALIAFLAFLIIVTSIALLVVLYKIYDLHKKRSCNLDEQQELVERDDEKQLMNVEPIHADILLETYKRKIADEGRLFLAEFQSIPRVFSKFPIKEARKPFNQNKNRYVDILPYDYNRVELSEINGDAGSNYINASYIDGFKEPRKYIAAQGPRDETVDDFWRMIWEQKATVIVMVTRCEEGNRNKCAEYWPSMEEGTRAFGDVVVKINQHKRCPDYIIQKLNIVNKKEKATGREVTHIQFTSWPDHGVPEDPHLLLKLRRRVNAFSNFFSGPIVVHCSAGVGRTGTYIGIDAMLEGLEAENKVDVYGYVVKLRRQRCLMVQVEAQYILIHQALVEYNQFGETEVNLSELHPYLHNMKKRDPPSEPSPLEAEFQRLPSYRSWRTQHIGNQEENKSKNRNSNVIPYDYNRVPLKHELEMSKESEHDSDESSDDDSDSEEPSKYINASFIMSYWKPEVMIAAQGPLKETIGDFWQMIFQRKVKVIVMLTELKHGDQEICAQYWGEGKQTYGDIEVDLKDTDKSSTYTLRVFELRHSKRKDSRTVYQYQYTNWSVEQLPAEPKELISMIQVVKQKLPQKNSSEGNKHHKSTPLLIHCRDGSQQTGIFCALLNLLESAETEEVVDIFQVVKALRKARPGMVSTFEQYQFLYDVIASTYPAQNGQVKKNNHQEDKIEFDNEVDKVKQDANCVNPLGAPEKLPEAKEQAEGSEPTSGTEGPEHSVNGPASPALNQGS
## Output > 50 µM

## Input Quote Receptor-type tyrosine-protein phosphatase C (Homo sapiens, UniProt P08575) IC50 for entry O=C(c1ccccc1)C(Cc1ccc(C(F)(F)P(=O)(O)O)c(Br)c1)c1ccccc1 (configuration not stated) .
## Output > 50 µM

----------
- assayProcedure: Maximal concentration in rat was determined
- Assay type: ADME, organism-based
- cond: in vivo
measuredQuantity: Cmax (µM)
API: value field is a number in µM; no unit string.

## Input Report Cmax, nothing else, for this molecule: O=C(c1ccccc1)C(Cc1ccc(C(F)(F)P(=O)(O)O)c(Br)c1)c1ccccc1 (stereo unspecified)
## Output 35

----------
- assayProcedure: Oral bioavailability in rat
- Type: ADME, organism-based
- cond: in vivo
measuredQuantity: bioavailability (%)
Provide the reading as a plain figure in %.

## Input For the compound O=C(c1ccccc1)C(Cc1ccc(C(F)(F)P(=O)(O)O)c(Br)c1)c1ccccc1 (stereo unspecified) , give its measured bioavailability value.
## Output 13
